Target: catalytic domain of Human PARP (Homo sapiens)
Construct: The catalytic domain of Human PARP was cloned and prepared; made in house
Test: Biacore surface plasmon resonance affinity assay
Type: binding
Conditions: pKD=-log10 KD, KD in mol/L; Biacore T100, 25° C.; read-out: pKD (converted)
measured.parameter: Kd

- compound: "O=C1COc2ccc(CCN3CC=C(c4ccc(F)cc4)CC3)cc2N1 [Compound 126]"
  target.system: "catalytic domain of Human PARP (Homo sapiens)"
  Kd: "1260 to 10000 nM"
- compound: "CC1Oc2ccc(CN3CCN(c4ccc(C#N)cc4)CC3)cc2NC1=O (stereo not shown) [Compound 219]"
  target.system: "catalytic domain of Human PARP (Homo sapiens)"
  Kd: "≤ 10 nM"
- compound: "C[C@@H]1Oc2ccc(CN3CCC(c4ccccc4)CC3)cc2NC1=O [Compound 46]"
  target.system: "catalytic domain of Human PARP (Homo sapiens)"
  Kd: "12.6 to 100 nM"
- compound: "COC(=O)c1ccc(N2CCN(Cc3ccc4c(c3)NC(=O)C(C)O4)CC2)nc1 (stereo not shown) [Compound 232]"
  target.system: "catalytic domain of Human PARP (Homo sapiens)"
  Kd: "≤ 10 nM"

Measured Kd, O=C1COc2ccc(CCN3CCC(c4ccc(Cl)cc4)CC3)cc2N1 [Compound 131] : 1260 to 10000 nM

Just so you know, measured Kd for CC1Oc2ccc(CN3CCC(c4cccc(C(=O)O)c4)CC3)cc2NC1=O (stereo not shown) [Compound 215] came out at ≥ 100000 nM

Measured Kd of CCOC(=O)CN1CCN(Cc2ccc3c(c2)NC(=O)C(C)O3)CC1 (stereo not shown) [Compound 102] : 1260 to 10000 nM

Kd in this record for CC1Oc2ccc(CN3CCC(c4ccc(F)cc4)CC3)cc2NC1=O (stereo not shown) [Compound 37] : 12.6 to 100 nM

So for CC1Oc2cc(CN3CCN(c4ccncc4)CC3)ccc2NC1=O (stereo not shown) [Compound 202] , the logged Kd turned out to be ≥ 100000 nM

* * *

Target: catalytic domain of Human PARP (Homo sapiens, UniProt P09874)
Construct: The catalytic domain of Human PARP was cloned and prepared; made in house
Sequence (P09874 788-1014 limits assumed): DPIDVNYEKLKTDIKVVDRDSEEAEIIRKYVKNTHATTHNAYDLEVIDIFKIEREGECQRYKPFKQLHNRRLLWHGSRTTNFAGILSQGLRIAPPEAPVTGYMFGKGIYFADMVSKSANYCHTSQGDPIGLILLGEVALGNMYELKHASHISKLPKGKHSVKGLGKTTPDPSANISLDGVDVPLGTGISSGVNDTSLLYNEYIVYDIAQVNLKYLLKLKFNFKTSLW
Assay: Biacore surface plasmon resonance affinity assay
Assay type: binding
Details: pKD=-log10 KD, KD in mol/L; Biacore T100, 25° C.; read-out: pKD (converted)
measured.parameter: Kd

Before answering, review these 5 worked examples.
- compound: "CN(C)C1CCN(CC(=O)c2ccc3c(c2)NC(=O)CO3)CC1"
  Kd: "≥ 100 µM"
- compound: "CC1Oc2ccc(-c3cccc(C(=O)N4CCOCC4)c3)cc2NC1=O (stereo not drawn)"
  Kd: "> 10 µM"
- compound: "CC(=O)Nc1ccc(-c2ccc3c(c2)NC(=O)C(C)O3)cc1 (stereo not drawn)"
  Kd: "> 10 µM"
- compound: "CONC(=O)c1ccc(-c2ccc3c(c2)NC(=O)C(C)O3)cc1 (stereo not drawn)"
  Kd: "> 10 µM"
- compound: "CC1Oc2ccc(-c3ccc(C(=O)N4CCN(C)CC4)cc3)cc2NC1=O (stereo not drawn)"
  Kd: "> 10 µM"

For this compound ( CCNC(=O)c1ccc(N2CCN(Cc3cc4c(c(OC)c3)OC(C)C(=O)N4)CC2)cc1 (stereo not drawn) ), measured Kd is < 0.0316 µM

Sure, the documented Kd for O=C1COc2ccc(CCN3CC=C(c4ccc(Cl)cc4)CC3)cc2N1 is 1.26 to 10 µM

Measured Kd of O=C1COc2ccc(CNC3CCCCC3)cc2N1 : 12.6 to 79.4 µM

Lab note: measured Kd of CN(C)C1CCN(Cc2ccc3c(c2)NC(=O)CO3)CC1 was 12.6 to 79.4 µM
